From: paper PMC10349072

Target: Plasmodium falciparum glutamine synthetase (rPfGS) (Plasmodium falciparum, UniProt C0H551)
Construct: gene PF3D7_0922600
Sequence (C0H551 1-543): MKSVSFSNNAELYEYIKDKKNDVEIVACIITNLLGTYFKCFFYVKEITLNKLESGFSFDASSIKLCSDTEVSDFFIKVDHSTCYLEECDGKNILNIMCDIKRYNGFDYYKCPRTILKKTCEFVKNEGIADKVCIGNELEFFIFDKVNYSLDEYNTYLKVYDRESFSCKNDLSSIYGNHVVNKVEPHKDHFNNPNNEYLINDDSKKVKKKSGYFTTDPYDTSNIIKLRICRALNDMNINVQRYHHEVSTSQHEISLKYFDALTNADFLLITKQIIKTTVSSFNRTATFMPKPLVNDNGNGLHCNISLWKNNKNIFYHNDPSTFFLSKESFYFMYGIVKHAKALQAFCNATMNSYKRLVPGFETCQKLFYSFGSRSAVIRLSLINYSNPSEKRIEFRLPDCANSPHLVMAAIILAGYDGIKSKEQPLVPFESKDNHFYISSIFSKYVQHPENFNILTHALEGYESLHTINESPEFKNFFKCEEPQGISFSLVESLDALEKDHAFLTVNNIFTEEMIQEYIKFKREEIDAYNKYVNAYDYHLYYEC
Experiment: biochemical
pKi: −log10 of the molar value.

Molecule	pKi
CP(=O)(O)CC[C@H](N)C(=O)O [PPT, Phosphinothricin]	5.64
